# Tested on: ACHN renal
# assay procedure: NCI tumour cell line growth inhibition, 48 h
measurement name: TGI (µM)
Numbers only, in µM.

# count of solved cases: 2
>>> result("O=C1C(=C2C(=O)c3ccccc3[N+]2=O)N([O-])c2ccccc21")
91.4
>>> result("Cc1c(S(=O)(=O)/N=C(\\NO)Nc2ccc(Cl)cc2)sc2ccc(Cl)cc12")
28.5

For each listed entry, give its TGI.
1. O=[N+]([O-])c1cccc(-c2ccc([C@H]3CC(c4ccc(Cl)cc4)=NN3)o2)c1
2. N#CSc1c[nH]c2cccc(/C=C/C(=O)/C=C(O)/C=C/c3cccc4[nH]cc(SC#N)c34)c12
3. CC(=O)Nc1ccc2c3c(cc(O)c2c1)N(C(=O)CCCCCCC(=O)Nc1ccc2c4c(cc(O)c2c1)N(C(=O)OC(C)(C)C)CC4CCl)CC3CCl (centres undefined)
4. Nc1ccc(Oc2ccc(C3(c4ccc(Oc5ccc(N)c(O)c5)cc4)C4CC5CC(C4)CC3C5)cc2)cc1O

[34.4, 1.04, 0.465, 3.18]

Report TGI for every entry below.
1. CCOc1ccc(-c2nc3ccc(-c4nc5ccc(N6CCN(C)CC6)cc5[nH]4)cc3[nH]2)cc1OCC
2. CCCN1CCCC(c2ccc(Nc3nc(Nc4cc(F)ccc4C(N)=O)c4cc[nH]c4n3)c(OC)c2)C1 (centres undefined)

1. 13.9
2. 6.23

Cited source for all entries: PubChem BioAssay (NCI)
